composite z-score overview
Test system: Human papillomavirus type 1a E7 protein (residues 1-88)
ASSAY EXPLANATION: HPV1a E7 small-molecule binders, primary screen, biochemical, small-molecule microarray, residues 1-88, 635 nm (AID 1129)
EXPERIMENTAL CONDITIONS: small-molecule microarray binding, fluorescence 635 nm; higher = more signal
Answer field: number only, no words.

Sample answers from the record:
Measured composite z-score of COc1ccc(C(=O)Nc2ccc(CN3C(=O)[C@]4(O[C@H](CCO)[C@@H]([Si](C)(C)c5ccc(OC)cc5)[C@@H]4C)c4ccccc43)cc2)cc1 : 1.06

Quick note, composite z-score for COC(=O)[C@]1(CCC(=O)OC(C)(C)C)N=C(c2ccc(OCCCO)cc2)O[C@@H]1c1ccccc1CN=[N+]=[N-] landed at 1.06

Others:
response.value for COc1ccc([Si](C)(C)[C@@H]2[C@@H](CC(=O)N3CCC[C@H]3CO)O[C@]3(C(=O)N(c4ccccc4)c4ccccc43)[C@H]2C)cc1 (field: composite z-score) = 1.22

composite z-score measured on COCCOC(=O)N1C(=O)[C@@]2(c3ccccc31)[C@H](C(=O)N1CCc3cc(OC)c(OC)cc3C1)[C@H]1C(=O)O[C@H](c3ccccc3)[C@H](c3ccccc3)N1[C@@H]2c1ccc(OCCO)cc1 = 1.22

Notebook: C=C(COC)/C(=C/C[C@@H](OC(C)=O)c1ccc(OCCO)cc1)c1cnc2ccccc2c1 , composite z-score read as 0.328

Kindly note the recorded composite z-score for COc1ccc(CCNC(=O)[C@@]2(Sc3ccc(C)cc3)CC(=O)N(C(C)C)[C@@H]2c2ccc(CO)cc2I)cc1 , which is 0.178

The compound listed as O=C1C[C@@](C(=O)NCCN2CCOCC2)(c2ccc([N+](=O)[O-])cc2)[C@@H](c2ccc(CO)cc2)N1CC12CC3CC(CC(C3)C1)C2 has a reported composite z-score of 1.25

src = PubChem BioAssay
